The measured values listed here are drawn from Sander's compilation of Henry's law constants (doi:10.1021/je300954s).

experiment: Henry solubility constant Hcp at 298.15 K (mol/(m3 Pa)); conditions: reference: Lee et al. (2012)
// Not satisfied strictly below 0.3 in Henry solubility constant Hcp; Satisfied otherwise

Reference set, count: 3
Please tell me: is the compound c1ccc2c(c1)cc1ccc3cccc4ccc2c1c34 [benzo[a]pyrene] at or over 0.3 in terms of Henry solubility constant Hcp?
Satisfied

Please tell me: is the compound c1ccc2c(c1)Cc1ccccc1-2 at or over 0.3 in terms of Henry solubility constant Hcp?
Satisfied

Please tell me: is the compound c1ccc2cc3ccccc3cc2c1 at or over 0.3 in terms of Henry solubility constant Hcp?
Not satisfied

Next:
Please tell me: is the compound c1ccc2ccccc2c1 at or over 0.3 in terms of Henry solubility constant Hcp?
Not satisfied

Please tell me: is the compound CCCCOC(=O)c1ccccc1C(=O)OCc1ccccc1 [butyl benzyl phthalate] at or over 0.3 in terms of Henry solubility constant Hcp?
Satisfied

Please tell me: is the compound c1cc2c3c(cccc3c1)CC2 at or over 0.3 in terms of Henry solubility constant Hcp?
Not satisfied

Please tell me: is the compound CCCCOC(=O)c1ccccc1C(=O)OCCCC [dibutyl phthalate] at or over 0.3 in terms of Henry solubility constant Hcp?
Satisfied

Please tell me: is the compound CC(=O)c1c(C)c([N+](=O)[O-])c(C(C)(C)C)c([N+](=O)[O-])c1C at or over 0.3 in terms of Henry solubility constant Hcp?
Satisfied
